- ASSAYED TARGET: hMAO-B (Homo sapiens)
- Sequence (P27338 1-520): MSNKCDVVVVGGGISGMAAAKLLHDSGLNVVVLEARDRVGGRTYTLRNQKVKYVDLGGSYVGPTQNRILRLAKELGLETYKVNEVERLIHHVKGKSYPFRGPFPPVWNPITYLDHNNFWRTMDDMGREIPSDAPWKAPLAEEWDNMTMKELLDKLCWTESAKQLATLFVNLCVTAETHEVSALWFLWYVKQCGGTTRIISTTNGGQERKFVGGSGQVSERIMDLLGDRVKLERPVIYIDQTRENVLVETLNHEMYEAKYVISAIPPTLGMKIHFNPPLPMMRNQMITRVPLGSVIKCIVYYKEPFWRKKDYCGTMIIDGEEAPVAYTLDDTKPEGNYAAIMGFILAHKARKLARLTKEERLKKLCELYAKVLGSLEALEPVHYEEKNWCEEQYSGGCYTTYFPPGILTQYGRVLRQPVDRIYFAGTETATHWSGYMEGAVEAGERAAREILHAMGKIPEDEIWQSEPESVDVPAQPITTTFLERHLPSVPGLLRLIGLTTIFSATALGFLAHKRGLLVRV
- RUN DESCRIPTION: hMAO inhibition assay (Amplex Red fluorescence), hMAO-B, benzylamine substrate
- Type: biochemical
- PROTOCOL CONDITIONS: recombinant hMAO-B; read-out: hMAO-B IC50
pIC50: −log10 of the molar value.
ENDPOINT NAME: pIC50

* O=C(/C=C/c1ccc2c(c1)OCCO2)c1ccccc1Br | 7.09
* O=C(/C=C/c1ccc2c(c1)OCCO2)c1ccc(Cl)c(Cl)c1 | 6.77
* O=C(/C=C/c1ccc2c(c1)OCCO2)c1ccc(C(F)(F)F)cc1 | 6.64

====

Reported inhibition at 1 µM is given for each of the following molecules.
- ASSAYED TARGET: hMAO-B (Homo sapiens)
- Sequence (P27338 1-520): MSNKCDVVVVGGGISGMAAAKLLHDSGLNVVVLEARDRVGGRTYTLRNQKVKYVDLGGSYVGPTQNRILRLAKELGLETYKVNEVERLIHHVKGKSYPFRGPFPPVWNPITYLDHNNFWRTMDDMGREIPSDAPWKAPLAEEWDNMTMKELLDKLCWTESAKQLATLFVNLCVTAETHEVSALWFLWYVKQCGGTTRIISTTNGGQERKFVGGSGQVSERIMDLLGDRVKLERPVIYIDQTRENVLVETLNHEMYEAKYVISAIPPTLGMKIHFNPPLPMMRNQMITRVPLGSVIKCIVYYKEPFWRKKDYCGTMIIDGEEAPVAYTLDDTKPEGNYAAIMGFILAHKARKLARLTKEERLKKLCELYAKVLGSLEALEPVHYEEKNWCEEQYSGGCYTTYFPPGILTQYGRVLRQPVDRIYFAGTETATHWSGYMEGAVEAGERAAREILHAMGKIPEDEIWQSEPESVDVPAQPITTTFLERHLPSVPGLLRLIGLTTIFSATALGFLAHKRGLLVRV
- RUN DESCRIPTION: hMAO inhibition assay (Amplex Red fluorescence), hMAO-B, benzylamine substrate
- Type: biochemical
- PROTOCOL CONDITIONS: tested concentration 1 µM
ENDPOINT NAME: inhibition at 1 µM

* O=C(/C=C/c1ccc2c(c1)OCO2)c1cccc(Br)c1 | 80.4%
* O=C(/C=C/c1ccc2c(c1)OCCO2)c1ccc(O)cc1O | 69.5%
* O=C(/C=C/c1ccc2c(c1)OCCO2)c1cccc(Cl)c1 | 93.4%
* O=C(/C=C/c1ccc2c(c1)OCCO2)c1cccc(F)c1 | 89.2%
* O=C(/C=C/c1ccc2c(c1)OCCO2)c1ccc(F)cc1 | 87.5%
* O=C(/C=C/c1ccc2c(c1)OCCO2)c1ccc(Cl)c(Cl)c1 | 88.8%
* O=C(/C=C/c1ccc2c(c1)OCCO2)c1cc(Cl)ccc1O | 78.4%
* O=C(/C=C/c1ccc2c(c1)OCCO2)c1ccccc1 | 84.9%
* O=C(/C=C/c1ccc2c(c1)OCCO2)c1ccc(F)c(Br)c1 | 95.6%

Each recorded value in this set is attributed to paper PMC7470127.
